All values here come from patent US20060194811A1.

// values below are reported inhibition at 1 µM
target: TARC binding to Hut78 cells (Homo sapiens); construct: host or cells: Hut78 cells (whole cells); assay: Inhibitory activity on binding of [125I]-TARC to Hut78 cells; details: test compound 1 μmol/L; [125I]-TARC, Hut78 cells, room temperature, two hours; read-out: The Binding Inhibitory Rates at 1 μmol/L (%)
Sequence (P51679 whole entry): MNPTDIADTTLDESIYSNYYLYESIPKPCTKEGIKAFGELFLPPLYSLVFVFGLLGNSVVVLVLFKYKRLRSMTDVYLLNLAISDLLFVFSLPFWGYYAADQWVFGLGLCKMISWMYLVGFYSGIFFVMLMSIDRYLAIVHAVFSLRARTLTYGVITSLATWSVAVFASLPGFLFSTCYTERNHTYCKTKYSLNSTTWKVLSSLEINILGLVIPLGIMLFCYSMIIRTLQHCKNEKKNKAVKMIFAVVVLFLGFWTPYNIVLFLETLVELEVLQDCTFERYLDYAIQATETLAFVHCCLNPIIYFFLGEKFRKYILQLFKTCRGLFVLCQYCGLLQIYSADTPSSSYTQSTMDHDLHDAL
Give the value, in units of %, as a plain number.

Would you please look over these solved cases?
{"Molecule": "Fc1ccc(-c2cnc(N3CCC(N4CCCCC4)CC3)nc2NCc2c(F)cccc2F)c(F)c1", "inhibition at 1 µM, %": 89}
{"Molecule": "Fc1ccc(-c2cnc(N3CCC(N4CCCCC4)CC3)nc2NCc2c(F)cccc2Cl)c(F)c1", "inhibition at 1 µM, %": 82}
{"Molecule": "Fc1ccc(-c2cnc(N3CCC(N4CCCCC4)CC3)nc2NCc2ccc(Cl)cc2F)c(F)c1", "inhibition at 1 µM, %": 81}

Continue with the next molecule.
query: Look up and report inhibition at 1 µM, with TARC binding to Hut78 cells (Homo sapiens) as system, for NC(=O)C1CCCN(C2CCN(c3ncc(-c4ccc(F)cc4F)c(NCc4ccc(F)cc4F)n3)CC2)C1 (stereo not shown)
result: 92
